Parameter: IC50 (read off the curve). Scope: all listed entries.
Target: T1, human CD47 expressed on cells (CD47 expressing CHO cells, Jurkat, HL60, DLD1, Raji) (human, UniProt Q08722 19-292)
T1 construct: also called CHO-CD47; IAP
Assay: flow cytometry blocking assay on Raji cells, SIRPα is the blocked ligand, MFI
QUANTITY KIND: IC50 (read off the curve)

{"columns": ["BINDER", "EXPERIMENTAL RESULT"],
 "data": [
  ["H-ABU 6 (antibody, V domains shown) VH: QVQLVQSGAEVKKPGASVKVSCKASGYTFTDFYINWVRQAPGQRLEWMGWIYLGSGNTKYNEKFKGRVTITRDTSASTAYMELSSLRSEDTAVYYCARREERGFAYWGQGTLVTVSS VL: DIVMTQSPDSLAVSLGERATINCKSSQSLLSSNQKNYLAWYQQKPGQPPKLLIYWASVRDSGVPDRFSGSGSGTDFTLTISSLQAEDVAVYYCQQFYSYPLTFGQGTKVEIK", "~0.4 nM"],
  ["H-ABU 7 (antibody, V domains shown) VH: QVQLVQSGAEVKKPGASVKVSCKASGYTFTDHYINWVRQAPGQRLEWMGWIYLGSGNTKYNEKFKGRVTITRDTSASTAYMELSSLRSEDTAVYYCARREDRGFAYWGQGTLVTVSS VL: DIVMTQSPDSLAVSLGERATINCKSSQSLLSSSQKNYLAWYQQKPGQPPKLLIYWASVRDSGVPDRFSGSGSGTDFTLTISSLQAEDVAVYYCQQYYSYPLTFGQGTKVEIK", "~0.09 nM"],
  ["Positive 3 (analogue antibody) (antibody, V domains shown) VH: QMQLVQSGAEVKKTGSSVKVSCKASGFNIKDYYLHWVRQAPGQALEWMGWIDPDQGDTEYAQKFQDRVTITRDRSMSTAYMELSSLRSEDTAMYYCNAAYGSSSYPMDYWGQGTTVTV VL: NIQMTQSPSAMSASVGDRVTITCKASQDIHRYLSWFQQKPGKVPKHLIYRANRLVSGVPSRFSGSGSGTEFTLTISSLQPEDFATYYCLQYDEFPYTFGGGTKVEIK", "~0.6 nM"],
  ["H-ABU 4 (antibody, V domains shown) VH: QVQLVQSGAEVKKPGASVKVSCKASGYTFTDIYINWVRQAPGQRLEWMGWIYLGSGNVKYNEKFKGRVTITRDTSASTAYMELSSLRSEDTAVYYCARREDRGFAYWGQGTLVTVSS VL: DIVMTQSPDSLAVSLGERATINCKSSQSLLSSNQKYYLAWYQQKPGQPPKLLIYWASTRDSGVPDRFSGSGSGTDFTLTISSLQAEDVAVYYCQQFYSYPLTFGQGTKVEIK", "~0.3 nM"]
]}
